Target: Cdk9/cyclinT1 (Homo sapiens)
Sequence (P50750 whole entry): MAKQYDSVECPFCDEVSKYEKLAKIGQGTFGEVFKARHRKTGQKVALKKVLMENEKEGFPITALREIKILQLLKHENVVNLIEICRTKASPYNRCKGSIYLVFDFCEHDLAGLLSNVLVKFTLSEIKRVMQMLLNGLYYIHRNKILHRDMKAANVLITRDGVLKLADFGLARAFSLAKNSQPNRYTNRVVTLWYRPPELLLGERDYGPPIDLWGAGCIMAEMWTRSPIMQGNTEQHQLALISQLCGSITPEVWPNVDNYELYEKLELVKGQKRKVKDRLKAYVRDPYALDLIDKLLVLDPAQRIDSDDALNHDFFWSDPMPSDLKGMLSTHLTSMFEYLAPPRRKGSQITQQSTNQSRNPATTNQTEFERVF
Sequence (O60563 whole entry partner): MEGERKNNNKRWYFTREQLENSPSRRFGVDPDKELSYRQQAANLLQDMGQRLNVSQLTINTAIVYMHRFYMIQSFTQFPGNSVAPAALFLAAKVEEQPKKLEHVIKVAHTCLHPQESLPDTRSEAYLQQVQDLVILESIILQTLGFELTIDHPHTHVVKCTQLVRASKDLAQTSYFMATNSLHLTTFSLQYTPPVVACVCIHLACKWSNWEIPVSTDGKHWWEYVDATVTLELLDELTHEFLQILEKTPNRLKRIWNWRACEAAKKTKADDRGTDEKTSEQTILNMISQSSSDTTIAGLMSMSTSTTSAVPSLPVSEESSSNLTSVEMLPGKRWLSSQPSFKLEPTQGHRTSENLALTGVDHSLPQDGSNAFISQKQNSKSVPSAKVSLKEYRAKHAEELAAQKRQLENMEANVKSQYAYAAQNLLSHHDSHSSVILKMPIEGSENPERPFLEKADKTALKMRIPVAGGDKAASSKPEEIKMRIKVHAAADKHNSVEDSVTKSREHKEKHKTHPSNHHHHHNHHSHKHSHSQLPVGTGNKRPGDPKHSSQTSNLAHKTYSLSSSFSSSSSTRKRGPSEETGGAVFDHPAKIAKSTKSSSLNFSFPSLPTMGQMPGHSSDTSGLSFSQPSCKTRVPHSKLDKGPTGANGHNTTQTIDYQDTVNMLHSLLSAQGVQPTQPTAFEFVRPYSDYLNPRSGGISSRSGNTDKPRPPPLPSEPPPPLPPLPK
Test: Cdk9/cyclinT1 Alpha Screen protocol
Type: biochemical
Parameters: Full length wild type Cdk9/cyclin T1 is purchased from Invitrogen; purchased Invitrogen PV4131
Details: neutral species; individual determinations; read-out: CDK9_cyclinT1_AS2_IC50
pIC50: −log10 of the molar value.
measured.endpoint: pIC50

> print(dat)
                                smiles.data  endpoint.result
1  C[C@@H](O)CN[C@H]1CC[C@H](Nc2cc(-c3cccc(NCC4(C#N)CCOCC4)n3)c(Cl)cn2)CC1           > 9.00

List reported pIC50 for each of these molecules:
1. N#CC1(CNc2cccc(-c3cc(N[C@H]4CC[C@H](N[C@H]5CCCC[C@@H]5O)CC4)ncc3Cl)n2)CCOCC1
2. N#CC1(CNc2cccc(-c3cc(N[C@H]4CC[C@H](N5CCn6c(nnc6C(F)(F)F)C5)CC4)ncc3Cl)n2)CCOCC1

Solution:
1: > 9.00; 2: 8.11
